Quick reference: Papp of the listed items.
Experiment Notes: Permeability of the compound in PBS/EtOH by PAMPA-BBB assay
Format: ADME
Measurement Context: read-out: permeability
Numbers only here, please. The scale is ×10⁻⁶ cm/s.

Consider the worked cases shown below.
Compound: CC1=CC2Cc3nc4cc(Cl)ccc4c(NCCCCCCCCCNS(=O)(=O)c4cn[nH]c4)c3C(C1)C2 (configuration not stated)
Papp, ×10⁻⁶ cm/s: 6.3
//
Compound: CC1=CC2Cc3nc4cc(Cl)ccc4c(NCCCCCCCCC(=O)N4CCNC(=O)C4)c3C(C1)C2 (configuration not stated)
Papp, ×10⁻⁶ cm/s: 4.9

Reported Papp, compound CC1=CC2Cc3nc4cc(Cl)ccc4c(NCCCCCCCCCNC(=O)c4ccc[nH]c4=O)c3C(C1)C2 (configuration not stated) : ____ 6.7

Could you share which Papp value was measured for CC1=CC2Cc3nc4cc(Cl)ccc4c(NCCCCCCCCCNC(=O)c4cc(O)cc(O)c4)c3C(C1)C2 (configuration not stated) ? 9.4

Reported Papp for CC1=CC2Cc3nc4cc(Cl)ccc4c(NCCCCCCCCC(=O)NCc4cc[nH]c(=O)c4)c3C(C1)C2 (configuration not stated) : what is it? 4.4

Item under review: CC1=CC2Cc3nc4cc(Cl)ccc4c(NCCCCCCCCC(=O)Nc4cn[nH]c4)c3C(C1)C2 (configuration not stated) . Reported Papp? 5.9

// returns reported Papp for input COc1cc(CNC(=O)CCCCCCCCNc2c3c(nc4cc(Cl)ccc24)CC2C=C(C)CC3C2)ccn1 (configuration not stated) 8.2

* * *

Target Or System: Beta-secretase 1 (Homo sapiens)
Sequence (P56817 whole entry): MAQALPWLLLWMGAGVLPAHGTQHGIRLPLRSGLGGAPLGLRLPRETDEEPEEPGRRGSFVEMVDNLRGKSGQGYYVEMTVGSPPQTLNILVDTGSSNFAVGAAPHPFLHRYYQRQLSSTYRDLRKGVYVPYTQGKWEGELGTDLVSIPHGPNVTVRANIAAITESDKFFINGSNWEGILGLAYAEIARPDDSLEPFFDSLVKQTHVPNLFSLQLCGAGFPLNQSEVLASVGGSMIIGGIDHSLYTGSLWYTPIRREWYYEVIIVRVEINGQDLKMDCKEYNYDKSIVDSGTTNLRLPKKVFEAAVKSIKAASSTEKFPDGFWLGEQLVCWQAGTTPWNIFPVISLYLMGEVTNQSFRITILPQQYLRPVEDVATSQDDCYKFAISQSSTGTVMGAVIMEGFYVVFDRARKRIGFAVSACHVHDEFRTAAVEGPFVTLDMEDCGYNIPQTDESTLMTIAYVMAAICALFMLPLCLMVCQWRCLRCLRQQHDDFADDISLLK
Experiment Notes: Inhibition of human recombinant BACE-1 expressed in Escherichia coli at 10 uM using panvera peptide as a substrate incubated for 1 hr by fluorescence analysis relative to control
Activity calls are given as the source filed them. The rule behind the calls is not given here.
Assay Readout: inhibition

# count of solved cases: 4
Molecule: CC1=CC2Cc3nc4cc(Cl)ccc4c(NCCCCCCCCCNC(=O)c4ccc[nH]c4=O)c3C(C1)C2 (stereo not given)
inhibition: 6.92%
//
Molecule: CC1=CC2Cc3nc4cc(Cl)ccc4c(NCCCCCCCCC(=O)N4CCNC(=O)C4)c3C(C1)C2 (stereo not given)
inhibition: inactive
//
Molecule: CC1=CC2Cc3nc4cc(Cl)ccc4c(NCCCCCCCCC(=O)Nc4cn[nH]c4)c3C(C1)C2 (stereo not given)
inhibition: 16.2%
//
Molecule: COc1cc(CNC(=O)CCCCCCCCNc2c3c(nc4cc(Cl)ccc24)CC2C=C(C)CC3C2)ccn1 (stereo not given)
inhibition: 26.5%

Let us move to another entry and its inhibition.
Using the record for CC1=CC2Cc3nc4cc(Cl)ccc4c(NCCCCCCCCC(=O)NCc4cc[nH]c(=O)c4)c3C(C1)C2 (stereo not given) , report its inhibition. inactive

* * *

Target Or System: Cholinesterase (Homo sapiens, UniProt P06276)
Sequence (P06276 whole entry): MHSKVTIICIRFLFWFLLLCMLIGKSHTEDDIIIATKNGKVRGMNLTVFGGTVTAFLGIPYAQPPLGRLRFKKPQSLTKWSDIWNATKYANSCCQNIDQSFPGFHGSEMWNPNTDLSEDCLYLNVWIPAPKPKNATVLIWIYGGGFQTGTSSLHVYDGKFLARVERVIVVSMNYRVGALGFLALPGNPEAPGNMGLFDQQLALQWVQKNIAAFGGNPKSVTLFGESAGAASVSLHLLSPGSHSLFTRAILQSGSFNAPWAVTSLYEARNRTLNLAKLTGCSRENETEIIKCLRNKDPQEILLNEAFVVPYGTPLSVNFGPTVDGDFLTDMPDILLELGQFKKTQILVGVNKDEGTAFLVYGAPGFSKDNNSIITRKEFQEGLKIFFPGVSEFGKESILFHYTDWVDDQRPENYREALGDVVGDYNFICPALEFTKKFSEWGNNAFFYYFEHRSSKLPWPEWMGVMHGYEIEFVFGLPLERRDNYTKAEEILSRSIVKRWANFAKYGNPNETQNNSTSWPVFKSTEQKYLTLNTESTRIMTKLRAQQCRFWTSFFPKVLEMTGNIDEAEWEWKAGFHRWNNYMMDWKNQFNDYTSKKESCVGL
Simple rule here: IC50 less than 60 nM is yes (1), otherwise no (0).

Compound: CC1=CC2Cc3nc4cc(Cl)ccc4c(NCCCCCCCCC(=O)N4CCNC(=O)C4)c3C(C1)C2 (configuration not stated)
Group Label: no (0)
--
Compound: CC1=CC2Cc3nc4cc(Cl)ccc4c(NCCCCCCCCCNC(=O)c4ccc[nH]c4=O)c3C(C1)C2 (configuration not stated)
Group Label: yes (1)
--
Compound: CC1=CC2Cc3nc4cc(Cl)ccc4c(NCCCCCCCCCNS(=O)(=O)c4cn[nH]c4)c3C(C1)C2 (configuration not stated)
Group Label: yes (1)
--
Compound: CC1=CC2Cc3nc4cc(Cl)ccc4c(NCCCCCCCCCNC(=O)c4cc(O)cc(O)c4)c3C(C1)C2 (configuration not stated)
Group Label: yes (1)
--
Compound: COc1cc(CNC(=O)CCCCCCCCNc2c3c(nc4cc(Cl)ccc24)CC2C=C(C)CC3C2)ccn1 (configuration not stated)
Group Label: no (0)
--
Compound: CC1=CC2Cc3nc4cc(Cl)ccc4c(NCCCCCCCCC(=O)NCc4cc[nH]c(=O)c4)c3C(C1)C2 (configuration not stated)
Group Label: no (0)

Next up:
Consider CC1=CC2Cc3nc4cc(Cl)ccc4c(NCCCCCCCCC(=O)Nc4cn[nH]c4)c3C(C1)C2 (configuration not stated) . Does its IC50 lie strictly below 60 nM? no (0)
